- target_of_assay: LdisPBP2 (Lymantria dispar, UniProt O16106)
- Sequence (O16106 21-165): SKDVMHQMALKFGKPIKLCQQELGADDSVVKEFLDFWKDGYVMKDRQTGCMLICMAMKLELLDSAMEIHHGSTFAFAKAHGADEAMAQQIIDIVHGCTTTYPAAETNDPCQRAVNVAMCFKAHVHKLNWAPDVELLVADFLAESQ
- measurement_notes: competitive fluorescence binding assay with 1-NPN as probe, LdisPBP2
- recorded_conditions: PBP2[Ki(μM)] pH7.3, pH 7.3, n=3, 2 μM protein and 1-NPN
Can you tell me Ki for the items I'm about to list?
// return numeric value only (unit: µM, not printed)

Input: Give me measured Ki, please, for this compound: OCCCCC1OC12CC2 (stereo not shown) [OXP2, 4-(1-oxaspiro[2.2]pent-2-yl)butan-1-ol]
Output: 2.46

Input: Give me measured Ki, please, for this compound: CCCCCCCCCCC1OC12CC2 (stereo not shown) [OXP1, 2-decyl-1-oxaspiro[2.2]pentane]
Output: 1.85

Input: Give me measured Ki, please, for this compound: O=C(CCCCC(=O)OCC1CCC2OC2C1)OCC1CCC2OC2C1 (stereo not shown) [Bis, Bis(3,4-epoxycyclohexylmethyl) adipate]
Output: 1.97

Input: Give me measured Ki, please, for this compound: O=Cc1ccccc1O [Sal, Salicylaldehyde]
Output: 5.32
